run.description: chemical genetic growth profiling, strain panel (AID 1159580);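 also: tested at 20 µM; growth read once vehicle control cultures reached saturation at 30 °C; 1 = growth at the plate median or of vehicle wells; lower values mean less growth of the strain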
measurement.parameters: S. cerevisiae deletion strains, growth OD, locus YNL307C, strain MCK1, hits give low values
Among all 5,500 compounds or so, about 2,000 (36%) were called active. Not shown: some 18% with an inconclusive outcome. The list shows a part of the results.
Here the recorded normalized growth is given for each entry.

{"columns": ["compound", "normalized growth"],
 "data": [
  ["O=C1OC(=O)C2C3CCC(O3)C12 (configuration not stated)", 0.977],
  ["Fc1ccc(C(c2ccc(F)cc2)N2CCN(C/C=C/c3ccccc3)CC2)cc1", 0.992],
  ["OCCN1CCN(CCCN2c3ccccc3Sc3ccc(Cl)cc32)CC1", 0.973],
  ["COc1cc(O)c(C(C)=O)c(OC)c1", 0.978],
  ["O=C(O)c1cc2cc(Cl)ccc2[nH]1", 0.979],
  ["CCOC(=O)C1=C(C)NC(C)=C(C(=O)OC)C1c1cccc([N+](=O)[O-])c1 (configuration not stated)", 1.01],
  ["O=C1c2ccc(O)c(O)c2C(=O)c2c(O)ccc(O)c21", 0.994],
  ["O=c1cc(-c2ccc(O)cc2)oc2cc(O[C@@H]3O[C@H](CO)[C@@H](O)[C@H](O)[C@H]3O[C@@H]3OC[C@](O)(CO)[C@H]3O)cc(O)c12", 0.977],
  ["CCCc1nc(C(C)(C)O)c(C(=O)OCc2oc(=O)oc2C)n1Cc1ccc(-c2ccccc2-c2nn[nH]n2)cc1", 0.992],
  ["NCCS", 1.02],
  ["N#Cc1ccc2c(c1)N(CCCN1CCC(O)CC1)c1ccccc1S2", 1],
  ["C[C@H]1C(=O)O[C@@H]2CCN3CC=C(COC(=O)[C@](C)(O)[C@]1(C)O)[C@H]23", 0.991],
  ["COc1cc(OC)c2c(c1Cl)OC1(C2=O)C(O)=CC(=O)CC1C (configuration not stated)", 0.993],
  ["Cc1cccc(N(C)C(=S)Oc2ccc3ccccc3c2)c1", 0.98],
  ["O=c1n(CCCN2CCN(c3cccc(Cl)c3)CC2)nc2ccccn12", 0.993],
  ["CCCCC(=O)N(Cc1ccc(-c2ccccc2-c2nn[nH]n2)cc1)[C@H](C(=O)O)C(C)C", 0.98],
  ["CC(=O)OCC(=O)[C@@]1(O)CCC2C3CCC4=CC(=O)CC[C@]4(C)[C@@]3(F)[C@@H](O)C[C@@]21C (some centres not stated)", 1.02]
]}

* * *

run.description: chemical genetic growth profiling, strain panel (AID 1159580)
measurement.parameters: S. cerevisiae deletion strains, growth OD, locus YPL204W, strain HRR25
The whole screen tested about 5,500 compounds, of which about 2,000 (36%) were called active. Roughly 18% stayed inconclusive and do not appear here. No stated cut-off is given here; in the data, active means normalized growth mostly below about 0.91 (no sharp cut-off); inconclusive means no clear call, values can overlap the other calls; inactive means mostly above about 0.92. The list shows a part of the results.
Outcome codes: 1 (active), -1 (inactive)

{"columns": ["molecule", "class.name"],
 "data": [
  ["N/C(=N/OC(=O)c1ccccc1Cl)c1cccc(CS(=O)(=O)c2ccc(Cl)cc2)c1", -1],
  ["FC(F)(F)c1ccc(C2Sc3ccccc3N=C3c4ccccc4CC32)cc1 (stereo not given)", -1],
  ["Cc1nc([N+](=O)[O-])cn1CC(=O)c1ccc(Cl)cc1", -1],
  ["CC(Oc1ccc(Cl)cc1Cl)C(=O)NNC(=S)Nc1ccccc1 (stereo not given)", -1],
  ["O=C(O)c1cccc2cccc(C(=O)O)c12", 1],
  ["CCOC(=O)C(O)(c1ccc(NC(=O)Nc2ccc(Cl)cc2)cc1)C(F)(F)F (stereo not given)", -1],
  ["O=C(NNc1c(Cl)cccc1Cl)c1ccc([N+](=O)[O-])o1", -1],
  ["N#C/C(=N/Nc1ccc(C(F)(F)F)cc1)C(=O)C1CC1", -1],
  ["Cc1oc(-c2ccc(Cl)cc2)cc1C(=O)N1CCN(c2ccc(C(F)(F)F)cn2)CC1", -1],
  ["CCOC(=O)C1C(c2ccc(Br)cc2)C(C(=O)OCC)C(O)(C(F)(F)F)NC1(O)C(F)(F)F (stereo not given)", -1],
  ["Nc1ccccc1C(=O)N/N=C\\c1cc(Cl)cc(Cl)c1O", 1],
  ["CSC(SC)=C(C#N)C(=O)c1ccccc1Cl", 1],
  ["CSc1sc(-c2ccn[nH]2)c(-c2ccccc2)c1C#N", -1],
  ["COc1cccc(C(=O)C(C#N)=C(SC)SC)c1", 1],
  ["CC1CCc2c(sc3ncnc(Sc4ccccc4)c23)C1 (stereo not given)", -1],
  ["Cc1nc(C(F)(F)F)ccc1-c1nnc(SC(=O)c2ccc(Cl)cc2)o1", -1],
  ["O=C(N/N=C\\c1cc(Cl)cc(Cl)c1O)c1ccccc1Oc1ccccc1", -1],
  ["O=S(=O)(Nc1ccc(-n2nc(C(F)(F)F)cc2-c2cccs2)cc1)c1ccc(F)cc1", -1],
  ["Cc1c(Cl)cccc1N=C1SCC(=O)N1Cc1ccco1", -1],
  ["CCCCCc1ccc(-c2nc(SCC(C)=O)n[nH]2)cc1", -1],
  ["O=C(Oc1ccc(C2SCCS2)cc1)c1cccs1", -1],
  ["O=C(OCc1ccc(Oc2ccc(Cl)cc2Cl)c([N+](=O)[O-])c1)c1ccc([N+](=O)[O-])o1", -1],
  ["CCOC(=O)C(NC(C)=O)(Nc1ccc(F)c(Cl)c1)C(F)(F)F (stereo not given)", -1],
  ["COc1cc(OC)cc(/C(N)=N\\O)c1", -1],
  ["N#C/C(=C\\c1ccc(C(F)(F)F)cc1)c1ccc(O)cc1", 1]
]}

* * *

Parameter: normalized growth. Scope: all listed entries.
run.description: chemical genetic growth profiling, strain panel (AID 1159580);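 also: tested at 20 µM; growth read once vehicle control cultures reached saturation at 30 °C; 1 = growth at the plate median or of vehicle wells; lower values mean less growth of the strain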
measurement.parameters: S. cerevisiae deletion strains, growth OD, locus YNL322C, strain KRE1 (second series), hits give low values
Screen size: about 5,500 compounds; about 2,000 (36%) were called active. Another 18% or so got no clear call; they are omitted. The list shows a part of the results.

{"columns": ["compound", "normalized growth"],
 "data": [
  ["COc1cc(OC)c2c(c1Cl)OC1(C2=O)C(O)=CC(=O)CC1C (stereo not drawn)", 1.01],
  ["OC[C@@H](O)C(O[C@@H]1O[C@H](CO)[C@H](O)[C@H](O)[C@H]1O)[C@H](O)[C@@H](O)CO (stereo partly drawn)", 0.986],
  ["COc1cc(O)c(C)c(O)c1", 1.02]
]}

* * *

run.description: chemical genetic growth profiling, strain panel (AID 1159580);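 also: tested at 20 µM; growth read once vehicle control cultures reached saturation at 30 °C; 1 = growth at the plate median or of vehicle wells; lower values mean less growth of the strain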
measurement.parameters: S. cerevisiae deletion strains, growth OD, locus YDR159W, strain sac3, hits give low values
The campaign covered roughly 5,500 compounds. About 2,000 (36%) were called active. Roughly 18% stayed inconclusive and do not appear here. Some of the results follow.

{"columns": ["mol.smiles", "normalized growth"],
 "data": [
  ["O=c1[nH]c2ccccc2n1CCCN1CCC(n2c(=O)[nH]c3cc(Cl)ccc32)CC1", "0.956 (inactive)"],
  ["COc1cc(O)c(C(C)=O)c(OC)c1", "0.936 (inactive)"],
  ["CC1(C)S[C@@H]2[C@H](NC(=O)COc3ccccc3)C(=O)N2[C@H]1C(=O)O", "1 (inactive)"],
  ["O=c1[nH]c2ccccc2n1C1CCN(CCCC(c2ccc(F)cc2)c2ccc(F)cc2)CC1", "0.92 (inactive)"]
]}

* * *

List of normalized growth values.
run.description: chemical genetic growth profiling, strain panel (AID 1159580);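 also: tested at 20 µM; growth read once vehicle control cultures reached saturation at 30 °C; 1 = growth at the plate median or of vehicle wells; lower values mean less growth of the strain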
measurement.parameters: S. cerevisiae deletion strains, growth OD, locus YHR200W, strain rpn10, hits give low values
The campaign covered roughly 5,500 compounds. About 2,000 (36%) were called active. About 18% were inconclusive and are not listed. Some of the results follow.

{"columns": ["molecule", "normalized growth"],
 "data": [
  ["CC1(C)C[C@@H]2C(=O)CC[C@H]3O[C@]3(C)CC[C@H]21", 0.997],
  ["C[C@]12CCC3C(CC[C@H]4CC(=O)CC[C@]34C)C1CCC2=O (stereo not given in full)", 0.928],
  ["CCCC(=O)Nc1ncnc2c1ncn2C1O[C@@H]2COP(=O)(O)O[C@H]2[C@H]1OC(=O)CCC (stereo not given in full)", 1.02],
  ["CC(C(=O)O)c1ccc(N2Cc3ccccc3C2=O)cc1 (stereo not given)", 1],
  ["CC(C)CCCC(C)C1CCC2C3CCC4CC(=O)CCC4(C)C3CCC12C (stereo not given)", 1.01],
  ["O=c1[nH]c2ccccc2n1C1CCN(CCCC(c2ccc(F)cc2)c2ccc(F)cc2)CC1", 0.988],
  ["CC(C)=CCc1c(O)cc2occ(-c3ccc4c(c3)OCO4)c(=O)c2c1O", 1.02],
  ["CSCCC(NC=O)C(=O)NC(CC(C)C)C(=O)NC(Cc1ccccc1)C(=O)O (stereo not given)", 0.98],
  ["CC(=O)OC1CCC23C(=O)OC45CCC(C6=CC(=O)OC6)C4(C)CCC2C5CCC3(O)C1 (stereo not given)", 1.01],
  ["CC1(C)C=Cc2c(cc3occ(-c4ccc5c(c4)OCO5)c(=O)c3c2O)O1", 0.968]
]}
